# System tested: human H4 receptor (Homo sapiens (Human), UniProt Q9H3N8)
# Sequence (Q9H3N8 whole entry): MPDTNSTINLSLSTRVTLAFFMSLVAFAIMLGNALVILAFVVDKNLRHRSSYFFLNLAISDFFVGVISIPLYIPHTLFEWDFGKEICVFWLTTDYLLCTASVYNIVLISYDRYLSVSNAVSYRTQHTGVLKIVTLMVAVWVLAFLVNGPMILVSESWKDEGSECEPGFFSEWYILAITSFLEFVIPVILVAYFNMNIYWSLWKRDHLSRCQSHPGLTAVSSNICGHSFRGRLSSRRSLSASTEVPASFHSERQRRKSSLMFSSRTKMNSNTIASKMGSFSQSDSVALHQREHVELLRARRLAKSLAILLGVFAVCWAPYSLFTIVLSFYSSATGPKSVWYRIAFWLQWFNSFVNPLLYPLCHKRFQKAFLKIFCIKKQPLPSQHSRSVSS
# Test summary: H4 Binding assay ([3H]histamine competition, membranes from CHO-K1 cells transfected with human H4 receptor)
# Run conditions: affinity for human histamine H4 receptor, class symbols; read-out: ACTIVITY CLASS hH4R (Ki)
In this section, each of the molecules is paired with its reported Ki.
Metric name: Ki

• Cc1cc(NS(=O)(=O)CCNc2nc(N3CCN(C)CC3)nc3cnc(Cl)cc23)n(C)n1 = < 1000 nM
• CN1CCN(c2nc(NCCS(=O)(=O)Nc3ccccc3)c3cc(Cl)ncc3n2)CC1 = < 100 nM
• CN1CCN(c2nc(NCCS(=O)(=O)NCc3ccccc3)c3cc(Cl)ncc3n2)CC1 = < 100 nM
• CNC(=O)CCNc1nc(N2CCN(C)CC2)nc2cnc(Cl)cc12 = < 1000 nM
• CN1CCN(c2nc(NCCS(N)(=O)=O)c3cc(Cl)ncc3n2)CC1 = < 100 nM
• CN1CCN(c2nc(NCc3ccsc3)c3cc(Cl)ncc3n2)CC1 = < 1000 nM
• CN1CCN(c2nc(NCCS(=O)(=O)Nc3cccc(OC(F)(F)F)c3)c3cc(Cl)ncc3n2)CC1 = < 1000 nM
• CN1CCN(c2nc(NCCS(=O)(=O)Nc3ccc(Cl)cc3)c3cc(Cl)ncc3n2)CC1 = < 100 nM
• CN1CCN(c2nc(NCCS(=O)(=O)NCc3ccccn3)c3cc(Cl)ncc3n2)CC1 = < 100 nM
• CN1CCN(c2nc(NCCS(=O)(=O)Nc3cccc(Cl)c3)c3cc(Cl)ncc3n2)CC1 = < 100 nM
• CN1CCN(c2nc(NCCS(=O)(=O)Nc3cccc(C(F)(F)F)c3)c3cc(Cl)ncc3n2)CC1 = < 100 nM
• CC(C)c1cc2c(NCCS(=O)(=O)Nc3ccccc3)nc(N3CCN(C)CC3)nc2cn1 = < 100 nM
• CCCc1cc2c(NCc3cccs3)nc(N3CCN(C)CC3)nc2cn1 = < 1000 nM
• CN1CCN(c2nc(NCCS(=O)(=O)Cc3ccccc3)c3cc(Cl)ncc3n2)CC1 = < 100 nM
• Cc1ccc(NS(=O)(=O)CCNc2nc(N3CCN(C)CC3)nc3cnc(Cl)cc23)cc1 = < 100 nM
• Clc1cc2c(NCc3ccco3)nc(N3CCNCC3)nc2cn1 = < 1000 nM
• CN1CCN(c2nc(NCC[S+]([O-])Cc3ccccc3)c3cc(Cl)ncc3n2)CC1 (stereo not shown) = < 100 nM
• O=S(=O)(CCNc1nc(N2CCN3CCCC3C2)nc2cnc(Cl)cc12)N1CCOCC1 (stereo not shown) = < 100 nM
• CN1CCN(c2nc(NCCS(=O)(=O)Nc3ccccc3Cl)c3cc(Cl)ncc3n2)CC1 = < 100 nM
• Cc1cc2c(NCc3cccs3)nc(N3CCNCC3)nc2cn1 = < 1000 nM
• Cc1ccsc1CNc1nc(N2CCN(C)CC2)nc2cnc(Cl)cc12 = < 1000 nM
• O=S(=O)(CCNc1nc(N2CCNCC2)nc2cnc(Cl)cc12)N1CCOCC1 = < 100 nM
• CN1CCN(c2nc(NCCS(=O)(=O)Nc3ccc(C(F)(F)F)cc3)c3cc(Cl)ncc3n2)CC1 = < 1000 nM
• Cc1ccc(CNc2nc(N3CCN(C)CC3)nc3cnc(Cl)cc23)s1 = < 1000 nM
• CN1CCN(c2nc(NCCS(=O)(=O)Nc3ccccc3N)c3cc(Cl)ncc3n2)CC1 = < 1000 nM
• CCCCNc1nc(N2CCN(C)CC2)nc2cnc(Cl)cc12 = < 1000 nM
• O=S(=O)(CCNc1nc(N2CCN3CCCC3C2)nc2cnc(Cl)cc12)Nc1ccccc1 (stereo not shown) = < 100 nM
• CN1CCN(c2nc(NCCc3cccs3)c3cc(Cl)ncc3n2)CC1 = < 1000 nM
